Form field: % inhibition of gametocyte viability (one value per entry).
tested on: Plasmodium falciparum NF54 stage IV/V gametocytes; experiment: % inhibition of gametocyte viability (ATP bioluminescence); higher = more inhibition; details: 5 µM; 24 h
reported_metric: % inhibition of gametocyte viability

[[record]]
molecule = "Cc1cc(C)n2nc(C(=O)NS(=O)(=O)c3c(C)cccc3OC(F)(F)F)nc2n1"
recorded_measurement = "< 0%"

[[record]]
molecule = "CC[C@H]1OC(=O)[C@H](C)[C@@H](O[C@H]2C[C@@](C)(OC)[C@@H](O)[C@H](C)O2)[C@H](C)[C@@H](O[C@@H]2O[C@H](C)C[C@H](N(C)C)[C@H]2O)[C@](C)(O)C[C@@H](C)C(=O)[C@H](C)[C@@H](O)[C@]1(C)O"
recorded_measurement = "< 0%"

[[record]]
molecule = "O=C(c1ccc(F)cc1)N1CCN2C(=O)c3ccccc3C12c1ccccc1 (stereo not drawn)"
recorded_measurement = "< 0%"

[[record]]
molecule = "CCNC(=O)Nc1cc2c(-c3ccnc(C)c3)ccc(CNC(=O)OC)c2cn1"
recorded_measurement = "< 0%"

[[record]]
molecule = "COc1ccc2c(c1OC)C(=O)OC2C1c2c(cc3c(c2OC)OCO3)CCN1C (stereo not drawn)"
recorded_measurement = "< 0%"

[[record]]
molecule = "Cc1c(N)cccc1Cn1ccc(OCCc2cccs2)cc1=O"
recorded_measurement = "< 0%"

[[record]]
molecule = "CCc1c(OCC2CCC2)c2cc(F)ccc2[nH]c1=O"
recorded_measurement = "< 0%"

[[record]]
molecule = "CC(C)(C)NC(=O)[C@@H]1CN(Cc2cnc3occc3c2)CCN1C[C@@H](O)C[C@@H](Cc1ccccc1)C(=O)N[C@H]1c2ccccc2C[C@H]1O"
recorded_measurement = "< 0%"

[[record]]
molecule = "Nc1nc(-c2ccccc2)nc2[nH]nc(Nc3ccc(C(F)(F)F)cc3)c12"
recorded_measurement = "< 0%"

[[record]]
molecule = "CCOC(=O)N1CCN(c2ccc(Cl)cc2)CC1"
recorded_measurement = "< 0%"

[[record]]
molecule = "Clc1cc(Cl)c2c(c1)CCc1ccccc1C2n1ccnc1 (stereo not drawn)"
recorded_measurement = "75.4%"

[[record]]
molecule = "Cc1nc(N(C)C(=O)Cc2ccc(-c3ccccn3)cc2)sc1S(N)(=O)=O"
recorded_measurement = "< 0%"

[[record]]
molecule = "O=S(=O)(NCB(O)O)c1ccc(-c2nnn[nH]2)cc1C(F)(F)F"
recorded_measurement = "< 0%"

[[record]]
molecule = "O=C(/C(=C/c1ccc(Cl)cc1Cl)n1ccnc1)c1ccc(Cl)cc1"
recorded_measurement = "86.2%"

[[record]]
molecule = "Cc1onc(-c2ccccc2)c1-c1ccc(S(N)(=O)=O)cc1"
recorded_measurement = "< 0%"

[[record]]
molecule = "CCCCSc1nc(N)c2[nH]c(=O)c(=O)n(Cc3ccccc3)c2n1"
recorded_measurement = "< 0%"

[[record]]
molecule = "CC[C@@]1(O)C(=O)OCc2c1cc1n(c2=O)Cc2cc3c(CN(C)C)c(O)ccc3nc2-1"
recorded_measurement = "< 0%"

[[record]]
molecule = "Clc1ccc(COC(Cn2ccnc2)c2ccc(Cl)cc2Cl)c(Cl)c1 (stereo not drawn)"
recorded_measurement = "20.2%"

[[record]]
molecule = "O=C(NCc1cccc2ccccc12)c1cccs1"
recorded_measurement = "< 0%"

[[record]]
molecule = "COCCn1cnc2c(=O)[nH]c(Nc3ccccc3)nc21"
recorded_measurement = "5.85%"

[[record]]
molecule = "CCCCOC(=O)Nc1cc2nc(C3CCCCC3)[nH]c2cc1N(CC)CC"
recorded_measurement = "19.3%"

[[record]]
molecule = "O=C(Nc1ccccc1)N(Cc1cc(Br)ccc1O)c1ccc(F)cc1"
recorded_measurement = "< 0%"

[[record]]
molecule = "OC[C@@H]1CC[C@H](n2cnc3c(O)ncnc32)O1"
recorded_measurement = "< 0%"

[[record]]
molecule = "COc1ccc(SC(=O)N[C@H](CCC(=O)O)C(=O)O)cc1"
recorded_measurement = "6.16%"

[[record]]
molecule = "O=C(N[C@H](CCS)C(=O)N[C@H](Cc1ccccc1)C(=O)O)c1cc2ccccc2[nH]1"
recorded_measurement = "< 0%"

[[record]]
molecule = "Cc1ccc(N2CCC(CCOc3ccc(S(C)(=O)=O)cc3)CC2)nn1"
recorded_measurement = "< 0%"

[[record]]
molecule = "c1cc(CN2CCCNCCNCCCNCC2)ccc1CN1CCCNCCNCCCNCC1"
recorded_measurement = "< 0%"

[[record]]
molecule = "CCc1cc(O)c(Oc2ccc(C(N)=O)cc2F)cc1F"
recorded_measurement = "< 0%"

